Item-by-item account of log10(IC50)
targetOrTestSystem: human atypical chemokine receptor 3 (ACKR3) (human, UniProt P25106 1-362)
Sequence (P25106 whole entry): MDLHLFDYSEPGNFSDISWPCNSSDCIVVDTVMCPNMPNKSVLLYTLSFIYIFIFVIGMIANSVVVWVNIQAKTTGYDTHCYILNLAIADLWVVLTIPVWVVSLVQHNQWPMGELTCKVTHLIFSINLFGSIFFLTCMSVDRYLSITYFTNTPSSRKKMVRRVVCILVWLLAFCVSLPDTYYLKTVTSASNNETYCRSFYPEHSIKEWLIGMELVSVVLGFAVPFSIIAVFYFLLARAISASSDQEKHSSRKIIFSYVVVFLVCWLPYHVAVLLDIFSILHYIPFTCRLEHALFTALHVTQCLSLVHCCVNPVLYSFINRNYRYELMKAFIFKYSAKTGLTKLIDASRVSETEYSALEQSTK
protocolDescription: binding competition with CXCL12-AF647, flow cytometry
No end group written: not given here.
A value of 2 here means IC50 of 100 in nM, since values are log10.

Observe how each entry below is paired with its result.
YGGFMRRV-NH2 [adrenorphin, YGGFMRRV (SEQ ID NO: 32; NH2-substituted at C-terminus)]    1.69
YGGFLRRIRPKLKWDNQ [dynorphin A]    1.92
GGFLRRIRPKLK-NH2 [dynorphin 2-13 (SEQ ID NO: 20; NH2-substituted at C-terminus)]    4.32
GGFLRRIRPKLKWDNQ [dynorphin 2-17 (SEQ ID NO: 19)]    4.05

Item YGGFLRRQFKVVT [dynorphin B] : provide log10(IC50) 2.67

Item H-FGGFMRRK-NH2 [LIH383, octapeptide FGGFMRRK (SEQ ID NO: 3; NH2-substituted at C-terminus)] : provide log10(IC50) 0.60

Item YGGFMRRVGRPEWWMDYQKRYG [BAM22] : provide log10(IC50) 1.51
